Test: MTS Assay in MCF-7 Cells (cell viability)
Details: human
observed.property: viability at 72 h, 10 µM

> print(dat)
                                   compound         observed.property  measured.result
1  CN[C@@H]1C[C@H]2O[C@@](C)([C@@H]1OC)n1c3ccccc3c3c4c(c5c6ccccc6n2c5c31)C(=O)NC4 [staurosporine, reference compound]  viability at 72 h, 10 µM             < 5%

====

Test system: MCF-7 human breast cancer cell line
Test: MTS Assay in MCF-7 Cells (cell viability)
Conditions: test peptides at 10 μM, 72 hours, relative to DMSO control
# if value of MTS Assay in MCF-7 Cells, Percent of Control Activity reaches 50%, tag Criterion met; if it stays below, tag Criterion not met

> print(dat)
                                  substance              group
1  17 (MVLFFRSSKLQYGRLFRSLVG) [compound 17]  Criterion not met
2       22 (MVWLRLSGSKVEWVWG) [compound 22]  Criterion not met
3          2 (MTHQSHAYHIVKPSP) [compound 2]      Criterion met
4     7 (MWFDYFCMSPSIDEGLTLLV) [compound 7]      Criterion met

====

Test: MTS Assay in MDA-MB-231 Cells (cell viability)
Type: cell-based, human
Conditions: human; Staurosporine 10 uM, positive control, MDA-MB-231 cells; read-out: Cell viability, % of the DMSO control value
observed.property: viability at 72 h, 10 µM

> print(dat)
                                   molecule  measured.result
1  CN[C@@H]1C[C@H]2O[C@@](C)([C@@H]1OC)n1c3ccccc3c3c4c(c5c6ccccc6n2c5c31)C(=O)NC4 [staurosporine, reference compound]               3%

====

Catalogue of Caspase 3/7 Activity in MDA-MB-231 Cells, Percent of Control Activity values
Tested on: MDA-MB-231 human breast cancer cell line
Assay: Caspase 3/7 Activity in MDA-MB-231 Cells (Caspase-Glo 3/7 Assay)
Format: cell-based
Settings: test peptides at 10 μM, 18 hours, relative to DMSO control
observed.property: Caspase 3/7 Activity in MDA-MB-231 Cells, Percent of Control Activity (%)

> print(dat)
                                  substance  measured.result
1       22 (MVWLRLSGSKVEWVWG) [compound 22]               31
2  17 (MVLFFRSSKLQYGRLFRSLVG) [compound 17]               43
3       12 (MVKGDSKYSEACRRVK) [compound 12]               52
4          2 (MTHQSHAYHIVKPSP) [compound 2]               51
5     7 (MWFDYFCMSPSIDEGLTLLV) [compound 7]               29
